Values from patent US10787423B2

Assay: Brain penetration after oral gavage, HPLC/MS of brain extracts
Type: in vivo, C57BL/6 mice
Conditions: C57BL/6, mouse, brain, oral, 50 mg/kg, 50 mg/kg in PLGA nanoparticles, oral gavage, 24 h, mouse; read-out: Compounds in brain extract
Procedure: C57BL/6 mice ([…]) were used. The animals received treatments with either free compounds of Formulae 1 and 10, or encapsulated compounds, prepared according to the Examples 16 and 17. […] The concentrations of the compounds in the tissues were determined by HPLC/MS analysis. Tissue samples were homogenized in phosphate-buffered saline solution, then diluted with acetonitrile to 50% v/v, centrifuged at 10,000 g for 10 minutes, and supernatants were analyzed. […]
As shown below, each of these compounds has a reported concentration at 24 h value.

COMPOUND: O=C1CC(N2CCC(Nc3ccc(OC(F)(F)F)cc3)CC2)C(=O)N1c1ccc(Cl)cc1 (centres unmarked) [Formula 10]
concentration at 24 h: 2800 nM

COMPOUND: O=C(CC(CO)N1CCN(c2ccc(OC(F)(F)F)cc2)CC1)Nc1ccc(Cl)cc1 (racemic) [Formula 1]
concentration at 24 h: 190 nM
